Assignment: determine reported pEC50 for the given binders.
# Measured On: purified biotin-tagged human CD36 (human, UniProt P16671 30-439, limits assumed, biotin tag, site not stated)
# Sequence (P16671 30-439 limits assumed): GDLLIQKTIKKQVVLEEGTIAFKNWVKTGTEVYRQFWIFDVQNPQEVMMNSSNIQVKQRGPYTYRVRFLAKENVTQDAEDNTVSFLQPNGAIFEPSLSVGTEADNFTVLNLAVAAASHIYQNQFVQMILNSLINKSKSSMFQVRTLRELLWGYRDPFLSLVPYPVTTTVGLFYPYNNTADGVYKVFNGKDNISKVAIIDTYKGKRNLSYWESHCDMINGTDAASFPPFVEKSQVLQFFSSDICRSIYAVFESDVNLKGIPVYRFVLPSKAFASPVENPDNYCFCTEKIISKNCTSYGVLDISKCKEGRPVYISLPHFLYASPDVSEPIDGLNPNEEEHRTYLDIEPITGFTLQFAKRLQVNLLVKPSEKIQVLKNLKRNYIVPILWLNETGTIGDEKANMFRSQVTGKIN
# Method Notes: AlphaScreen competition; competitor 1G04 on acceptor beads;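 further: streptavidin donor beads excited at 680 nm release singlet oxygen, and the light signal needs a nearby acceptor bead, with 30 min donor-bead incubation at 25 °C in the dark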
One number for each entry, as −log10 of the molar value.

Take a look at these entries with their results.
# Binder, pEC50
measured = [
    ("33G04 (antibody, human IgG1, V domains shown, Chimeric: chicken variable regions on human IgG1 LALA (L234A/L235A); also called 033G04) VH: AVTLDESGGGLQTPGGALSLVCKASGFDFSSYAMGWVRQAPGKGLEWVAGKAKDGGGTAYGSAVKGRATISRDNGQSTVRLQLSNLRAEDTGVYYCAKSAYGDWFYGSSGPYADSIDAWGHGTEVIVSS VL: ALTQPSSVSASPGETVKITCSGSSDSWYGWYQQKSPGSALVTVIYDSTNRPSSIPSRFSGSTSGSTGTLTITGVRADDEAVYFCGSFDSSTDSTAFGAGTTLTVL", 8.80),
    ("27G04 (antibody, human IgG1, V domains shown, Chimeric: mouse variable regions on human IgG1 LALA (L234A/L235A)) VH: EVQLQQSGAELLKPGASVKISCKTTGYTFSNYWIEWVKQRPGHGLEWIGEILPGSGSPKYNEKFKGKATLTADTSSNTAFMQLSSLTSEDSAVYYCAPFILENYFDYWGQGTTLTVSS VL: DIQMTQSHKFMSTSVGDRVSITCKASQDVSTAVAWYQQKPGQSPKLLIYSASYRYTGVPDRFTGSGSGTDFTFTISSVQAEDLAVYYCQQHYSTPRTFGGGTKLEIK", 9.82),
    ("36G04 (antibody, human IgG1, V domains shown, Chimeric: chicken variable regions on human IgG1 LALA (L234A/L235A); also called 036G04) VH: AVTLDESGGGLQTPGGALSLVCKASGFIFSSYGMGWVRQAPGKGLEYIAAISNDGSKADYGAAVKGRATISRDNGQSTVRLQLNNLRAEDTATYYCAKSADTGYCSWSACIADSIDAWGHGTEVIVSS VL: ALTQPSSVSAIPGETVKITCSGGGSDYGWYQQKSPGSAPVTVIYWSDNRPSNIPSRFSGSESGSTATLTITGVRAEDEAVYFCGGYDSSGSGMFGAGTTLTVL", 9.24),
]

Moving on to another binder below.
Reported pEC50, binder 23G04 (antibody, human IgG1, V domains shown, Chimeric: mouse variable regions on human IgG1 LALA (L234A/L235A); also called 023G04) VH: QVQLQQPGTELVKPGASVKLSCKASGYTFTSYWMHWVKQRPGQGLEWIGEIDPSDSHTNYNQKFKGKATLTVDKSSSTAYMQLSSLTSEDSAVYYCAPIYYGLDNWGQGTTLTVSS VL: DIVLTQSQKFMSTSVGDRVSVTCKASQNVGTNVAWYQQKPGQSPKALIYSASYRYSGVPDRFTGSGSGTDFTLTISNVQSEDLAEYFCQQYNSYPYTFGGGTKLEIK : ____ 9.55
